- Method Notes: in vitro
- Assay Setup: human, pH 8.5
Metric Name: recovery at 14 h, 1 mM (%)

INSERT INTO results (compound, quantity_unit, observed) VALUES
  ('COc1cc(OC)c(S)c(OC)c1 [Peptide 13]', '%', 61.8);
